PROTOCOL: Cmax in athymic CD-1 nude mouse at 10 mg/kg, po by LC-MS/MS analysis
Format: ADME, organism-based
Design: dose 10 mg/kg, route oral
APPLIED_CONDITIONS: in vivo
QUANTITY: Cmax (µg/mL)

COMPOUND: Cc1cc(-c2cnn3c(NCCN4CCOCC4)cc(Oc4cccc(F)c4)nc23)ccc1C(=O)NC1CC1
UNIT_OF_MEASURE: µg/mL
MEASURED_RESULT: 1.2
//
COMPOUND: Cc1cc(-c2cnn3c(NCC4CCOCC4)cc(N[C@@H](C4CC4)C(C)(C)O)nc23)ccc1C(=O)NC1CC1
UNIT_OF_MEASURE: µg/mL
MEASURED_RESULT: 5.5
//
COMPOUND: Cc1cc(-c2cnn3c(NC[C@H]4C[C@H](O)C4)cc(Oc4cccnc4)nc23)ccc1C(=O)NC1CC1
UNIT_OF_MEASURE: µg/mL
MEASURED_RESULT: 0.12

(I) Cc1cc(-c2cnn3c(NCC4CCOCC4)nc(NC4CCCC4)nc23)ccc1C(=O)NC1CC1
(II) Cc1cc(-c2cnn3c(NC[C@H]4C[C@](C)(O)C4)cc(Oc4cccnc4)nc23)ccc1C(=O)NC1CC1
Could you tell me which of these two has the smaller Cmax figure? First: I Second: II Indicate which entry you chose by stating its label.
I
(I: 0.43 µg/mL, II: 1.8 µg/mL)

====

PROTOCOL: AUC (0 to infinity) in beagle dog at 5 mg/kg, po by LC-MS/MS analysis
Assay type: ADME, organism-based, Canis lupus familiaris
Parameters: dose 5 mg/kg, route oral, time infinity
APPLIED_CONDITIONS: in vivo
QUANTITY: AUC(0-inf) (ng·h/mL)
// return numeric value only (unit: ng·h/mL, not printed)

MOLECULE: Cc1cc(-c2cnn3c(NCC4CCOCC4)cc(N[C@@H](C4CC4)C(C)(C)O)nc23)ccc1C(=O)NC1CC1
AUC(0-inf) (ng·h/mL): 6900

MOLECULE: Cc1cc(-c2cnn3c(NCC4CC4)cc(NC4CCCC[C@H]4O)nc23)ccc1C(=O)NC1CC1 (single isomer, unassigned)
AUC(0-inf) (ng·h/mL): 14000

Could you share which AUC(0-inf) value was measured for Cc1cc(-c2cnn3c(NC[C@H]4C[C@@](C)(O)C4)cc(Oc4cccnc4)nc23)ccc1C(=O)NC1CC1 ?
25000

I am curious: what AUC(0-inf) value has been reported for Cc1cc(-c2cnn3c(NCCN4CCOCC4)cc(Oc4cccc(F)c4)nc23)ccc1C(=O)NC1CC1 ?
2200

====

SYSTEM: Cytochrome P450 3A4 (Homo sapiens, UniProt P08684)
Sequence (P08684 whole entry): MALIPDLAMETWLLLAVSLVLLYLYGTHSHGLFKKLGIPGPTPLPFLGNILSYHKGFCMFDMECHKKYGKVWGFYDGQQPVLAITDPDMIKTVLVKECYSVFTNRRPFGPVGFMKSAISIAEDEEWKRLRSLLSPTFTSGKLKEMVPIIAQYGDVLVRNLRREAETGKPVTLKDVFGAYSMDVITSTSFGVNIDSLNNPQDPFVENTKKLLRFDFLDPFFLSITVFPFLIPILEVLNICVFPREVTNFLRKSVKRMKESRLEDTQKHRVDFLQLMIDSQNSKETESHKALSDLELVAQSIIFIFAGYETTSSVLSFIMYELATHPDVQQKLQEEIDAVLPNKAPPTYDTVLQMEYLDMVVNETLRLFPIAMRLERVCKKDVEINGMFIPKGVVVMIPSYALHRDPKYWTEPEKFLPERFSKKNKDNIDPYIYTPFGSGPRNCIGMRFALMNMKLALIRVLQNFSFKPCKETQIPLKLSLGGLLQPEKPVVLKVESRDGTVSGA
PROTOCOL: Inhibition of CYP3A4 (unknown origin) preincubated for 10 mins followed by addition of BFC as substrate measured after 10 mins in presence of NADP by fluorescence analysis
Type: ADME
IC50 overview
A number alone suffices; assume nM.

COMPOUND: Cc1cc(-c2cnn3c(NCC4CCOCC4)cc(N[C@@H](C4CC4)C(C)(C)O)nc23)ccc1C(=O)NC1CC1
QUANTITY: IC50
UNIT_OF_MEASURE: nM
MEASURED_RESULT: 3000
//
COMPOUND: Cc1cc(-c2cnn3c(NCCN4CCOCC4)cc(Oc4cccc(F)c4)nc23)ccc1C(=O)NC1CC1
QUANTITY: IC50
UNIT_OF_MEASURE: nM
MEASURED_RESULT: 780
//
COMPOUND: Cc1cc(-c2cnn3c(NC[C@H]4C[C@@](C)(O)C4)cc(Oc4cccnc4)nc23)ccc1C(=O)NC1CC1
QUANTITY: IC50
UNIT_OF_MEASURE: nM
MEASURED_RESULT: 510

Now let's try a different one.
GET /values?readout=IC50&system=Cytochrome P450 3A4 (Homo sapiens, UniProt P08684)&item= Cc1cc(-c2cnn3c(NCC4CC4)cc(NC4CCCC[C@H]4O)nc23)ccc1C(=O)NC1CC1 (single isomer, unassigned)
2000
